Source: patent US20230265217A1

Reported values of pIC50 for individual entries
- subject_of_test: Antibody 178-09_His B.1.1.7 (27080) (SARS-CoV-2, UniProt P0DTC2 14-685)
- measurement_notes: FACS
To interpret pIC50, take it as minus log10 of a concentration measured in moles per litre.

Worked examples, 3 binders total:
7-14 (VHH) VHH: EVQLVESGGGLVQPGGSLRLSCAASGSTFSINAMGWFRQAPGKEREFVAGISRGGTTNYADSVKGRFTISADNSKNTAYLQMNSLKPEDTAVYYCAADGVPEYSDYASGPVWGQGTLVTVSS	8.60
5A-3 (VHH) VHH: EVQLVESGGGLVQPGGSLRLSCAASGSIFSIDVMGWFRQAPGKEREFVAGISWSGDSTLYADSVKGRFTISADNSKNTAYLQMNSLKPEDTAVYYCAAFDGYTGSDWGQGTLVTVSS	9.05
7-26 (VHH) VHH: EVQLVESGGGLVQPGGSLRLSCAASGSTFSINAMGWFRQAPGKEREFVAGITSSGGYTNYADSVKGRFTISADNSKNTAYLQMNSLKPEDTAVYYCAADGVPEYSDYASGPVWGQGTLVTVSS	8.85

Please turn your attention to the following entry.
Which pIC50 value is on record for 7-37 (VHH) VHH: EVQLVESGGGLVQPGGSLRLSCAASGSTLSINAMGWFRQAPGKEREFVAGITRSGSVTNYADSVKGRFTISADNSKNTAYLQMNSLKPEDTAVYYCAADGVPEYSDYASGPVWGQGTLVTVSS ?
8.55
